Sourced from ChEMBL document CHEMBL4270502

- assayedTarget: Serine/threonine-protein kinase PAK 3 (Homo sapiens)
- Sequence (O75914 whole entry): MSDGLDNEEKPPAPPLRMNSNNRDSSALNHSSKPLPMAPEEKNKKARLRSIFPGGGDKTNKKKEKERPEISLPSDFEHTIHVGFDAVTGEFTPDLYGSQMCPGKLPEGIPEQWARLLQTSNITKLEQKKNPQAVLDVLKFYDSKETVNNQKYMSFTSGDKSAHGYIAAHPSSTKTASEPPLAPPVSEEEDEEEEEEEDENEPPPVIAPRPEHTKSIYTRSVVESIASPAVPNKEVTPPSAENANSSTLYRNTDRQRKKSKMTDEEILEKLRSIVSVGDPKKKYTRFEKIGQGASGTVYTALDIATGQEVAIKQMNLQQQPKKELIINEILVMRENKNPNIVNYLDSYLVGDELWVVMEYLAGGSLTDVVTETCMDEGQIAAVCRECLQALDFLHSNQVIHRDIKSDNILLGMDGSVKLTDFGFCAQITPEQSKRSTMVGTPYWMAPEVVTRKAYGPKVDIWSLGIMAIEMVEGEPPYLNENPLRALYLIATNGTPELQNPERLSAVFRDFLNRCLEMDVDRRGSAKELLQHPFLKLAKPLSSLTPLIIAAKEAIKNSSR
pIC50: −log10 of the molar value.
resultType: pIC50

mol	assayedTarget	numericReadout
CN[C@@H]1C[C@H]2O[C@@](C)([C@@H]1OC)n1c3ccc(O)cc3c3c4c(c5c6cc(O)ccc6n2c5c31)C(=O)NC4	Serine/threonine-protein kinase PAK 3 (Homo sapiens)	9.00

---

Examples of molecules with documented IC50 follow.
- assayedTarget: Serine/threonine-protein kinase PAK 1 (Homo sapiens, UniProt Q13153)
- Sequence (Q13153 whole entry, the tested form may be a part): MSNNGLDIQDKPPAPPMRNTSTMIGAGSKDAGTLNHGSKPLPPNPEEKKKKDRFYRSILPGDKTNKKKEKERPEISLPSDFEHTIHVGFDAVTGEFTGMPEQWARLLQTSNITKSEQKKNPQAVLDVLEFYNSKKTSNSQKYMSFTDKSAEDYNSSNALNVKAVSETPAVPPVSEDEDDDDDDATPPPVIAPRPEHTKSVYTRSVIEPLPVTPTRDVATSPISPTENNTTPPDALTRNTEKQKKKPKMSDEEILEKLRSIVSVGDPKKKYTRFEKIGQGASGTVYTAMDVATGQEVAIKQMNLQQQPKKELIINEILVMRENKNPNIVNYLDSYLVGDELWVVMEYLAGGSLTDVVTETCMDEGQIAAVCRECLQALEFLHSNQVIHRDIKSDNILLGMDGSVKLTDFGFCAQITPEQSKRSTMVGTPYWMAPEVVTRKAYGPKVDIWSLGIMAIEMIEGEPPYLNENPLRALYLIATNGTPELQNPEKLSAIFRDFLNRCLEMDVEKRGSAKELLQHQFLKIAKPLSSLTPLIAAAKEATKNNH
- assaySummary: Inhibition of recombinant human PAK1 by ADP-Glo kinase assay
resultType: IC50 (µM)

molecule	assayedTarget	resultType	numericReadout
CO[C@@H]1[C@@H](O)[C@H](O[C@@H]2[C@@H](O)[C@H](O[C@H]3[C@H](O)[C@@H](O[C@@H]4OC[C@@H](O)[C@H](O)[C@H]4O)[C@H](O[C@H]4[C@H](O[C@H]5CC[C@]6(C)[C@@H]7CCC89C(=O)O[C@@](C)(CCCC(C)C)[C@H]8[C@@H](OC(C)=O)C[C@@]9(C)C7=CC[C@H]6C5(C)C)OC[C@@H](OS(=O)(=O)O)[C@@H]4O)O[C@@H]3C)OC[C@H]2O)O[C@H](CO)[C@H]1O (some centres not stated)	Serine/threonine-protein kinase PAK 1 (Homo sapiens, UniProt Q13153)	IC50	1
Oc1ccc(/C=C/c2cc(O)cc(O)c2)cc1 [RESVERATROL]	Serine/threonine-protein kinase PAK 1 (Homo sapiens, UniProt Q13153)	IC50	15

---

- assayedTarget: Serine/threonine-protein kinase PAK 1 (Homo sapiens)
- assaySummary: Inhibition of PAK1 in human MCF7 cells transfected with constitutively active NH2-terminally truncated C1199 Tiam1 construct
- Type: cell-based
pIC50: −log10 of the molar value.

mol	assayedTarget	pIC50
Cc1cc(C)cc(NC(=N)Nc2ccccc2C(F)(F)F)c1	Serine/threonine-protein kinase PAK 1 (Homo sapiens)	5.40

---

- assayedTarget: Serine/threonine-protein kinase PAK 1 (Homo sapiens, UniProt Q13153)
- assaySummary: Inhibition of PAK1 (unknown origin)
pIC50: −log10 of the molar value.

mol	pIC50
Oc1ccc2ccccc2c1SSc1c(O)ccc2ccccc12	6.00

---

- assayedTarget: Serine/threonine-protein kinase PAK 1 (Mus musculus)
- Sequence (O88643 whole entry): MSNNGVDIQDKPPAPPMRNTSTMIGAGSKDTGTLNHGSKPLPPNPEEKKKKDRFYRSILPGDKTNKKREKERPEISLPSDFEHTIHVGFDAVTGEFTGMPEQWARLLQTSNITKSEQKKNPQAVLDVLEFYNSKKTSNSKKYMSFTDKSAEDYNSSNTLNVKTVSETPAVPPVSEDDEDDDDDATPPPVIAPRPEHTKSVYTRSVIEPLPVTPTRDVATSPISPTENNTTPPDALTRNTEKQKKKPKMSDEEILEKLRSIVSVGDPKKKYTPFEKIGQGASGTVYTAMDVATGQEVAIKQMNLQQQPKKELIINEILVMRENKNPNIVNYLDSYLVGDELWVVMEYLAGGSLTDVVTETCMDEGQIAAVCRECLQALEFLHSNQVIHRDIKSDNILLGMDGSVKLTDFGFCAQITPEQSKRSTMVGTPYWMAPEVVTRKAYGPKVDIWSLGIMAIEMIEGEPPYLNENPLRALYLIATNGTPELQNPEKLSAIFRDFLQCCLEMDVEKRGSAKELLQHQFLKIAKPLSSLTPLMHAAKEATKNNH
- assaySummary: Inhibition of PAK1 in v-Ha-RAS-transformed mouse NIH/3T3 cells incubated for 1 hr by immunoblot analysis
resultType: IC50 (nM)

mol	numericReadout
CCSCc1ccc2c(c1)c1c3c(c4c5cc(CSCC)ccc5n5c4c1n2C1C[C@](O)(C(=O)OC)[C@]5(C)O1)CNC3=O	1000

---

- assayedTarget: Mitogen-activated protein kinase kinase kinase 11 (Homo sapiens, UniProt Q16584)
- Sequence (Q16584 whole entry): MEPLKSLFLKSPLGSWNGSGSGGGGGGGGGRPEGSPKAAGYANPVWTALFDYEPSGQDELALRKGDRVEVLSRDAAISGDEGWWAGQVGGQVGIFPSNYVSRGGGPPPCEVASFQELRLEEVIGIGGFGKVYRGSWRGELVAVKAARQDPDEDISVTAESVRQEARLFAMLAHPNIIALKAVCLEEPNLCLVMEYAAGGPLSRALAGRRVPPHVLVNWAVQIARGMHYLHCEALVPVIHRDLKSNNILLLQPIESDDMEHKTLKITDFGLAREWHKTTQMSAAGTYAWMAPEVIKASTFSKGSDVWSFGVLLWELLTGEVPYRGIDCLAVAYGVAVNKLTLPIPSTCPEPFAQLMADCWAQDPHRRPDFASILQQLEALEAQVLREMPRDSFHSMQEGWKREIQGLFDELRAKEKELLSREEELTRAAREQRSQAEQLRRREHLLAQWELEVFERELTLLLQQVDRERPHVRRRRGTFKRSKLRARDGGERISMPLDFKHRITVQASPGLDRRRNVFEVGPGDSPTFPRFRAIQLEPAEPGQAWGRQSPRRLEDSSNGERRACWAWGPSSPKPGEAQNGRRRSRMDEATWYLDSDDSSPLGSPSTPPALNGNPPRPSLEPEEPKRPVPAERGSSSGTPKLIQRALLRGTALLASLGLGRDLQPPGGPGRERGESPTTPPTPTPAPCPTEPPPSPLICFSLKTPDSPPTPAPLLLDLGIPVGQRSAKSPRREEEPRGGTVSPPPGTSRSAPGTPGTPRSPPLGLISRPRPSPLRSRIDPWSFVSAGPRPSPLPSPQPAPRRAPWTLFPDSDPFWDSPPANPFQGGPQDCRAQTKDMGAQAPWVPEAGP
- assaySummary: Inhibition of flag-tagged MLK3 (unknown origin) expressed in human HeLa cells assessed as reduction in enzyme autophosphorylation incubated for 20 mins by immunoprecipitatation

mol	assayedTarget	IC50
CCSCc1ccc2c(c1)c1c3c(c4c5cc(CSCC)ccc5n5c4c1n2C1C[C@](O)(C(=O)OC)[C@]5(C)O1)CNC3=O	Mitogen-activated protein kinase kinase kinase 11 (Homo sapiens, UniProt Q16584)	20 nM

---

- assayedTarget: Serine/threonine-protein kinase PAK 1 (Homo sapiens, UniProt Q13153)
- assaySummary: Inhibition of HA-PAK1 (unknown origin) using histone H4 substrate and [gamma-32P] ATP by autoradiography

mol	IC50 / µM
CCCCCC(=O)c1c(O)cc(OC)c(Cl)c1O	2.5
